Biological target: T1, human CD47ECD His tagged protein (human, UniProt Q08722 19-139, limits assumed)
T1 construct: extracellular domain; also called HuCD47ECD 8xHis; monovalent CD47ECD His tagged protein
T1 sequence (Q08722 19-139 limits assumed): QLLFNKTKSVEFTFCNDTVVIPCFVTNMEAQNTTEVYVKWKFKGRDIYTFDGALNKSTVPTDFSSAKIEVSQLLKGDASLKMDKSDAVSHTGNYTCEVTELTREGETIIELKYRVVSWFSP
Assay: SPR (Biacore 3000); antibody captured on anti-human Fc chip, monovalent HuCD47ECD 8xHis injected
pKd: −log10 of the molar value.
Property: pKd; scope: individual binders
observationType: pKd

1) D96S1 mouse/human chimeric anti-human CD47 antibody (antibody, V domains shown, also called chimeric D96S1) VH: EVQLQQSGAELVKPGASVKLSCTASGFNIKDTYIHWVKQRPEQGLEWIGRIDPANGNIKSDPKFQGKATVTADTSSNTAYLQLSSLTSEDTAVYYCARSYGSSFASWGQGTLVTVSP VL: DIQMTQTTSSLSASLGDRVTISCRASQDISNHLNWYQQKPDGAVKLLIYYTSRLHSGVPSRFSGSGSGTDYSLTISNLEQEDIATYFCQQGSTFPYTFGGGTKLEIK    8.50
2) D36S4 mouse/human chimeric anti-human CD47 antibody (antibody, V domains shown, also called chimeric D36S4 antibody; D36S4 H/L) VH: EVKLEESGGGLVQPGGSMKLSCVASGFTFSRYWMNWVRQSPDKGLEWVAQIRLKSDNYETHYAESVKGRFTISRDDSKSSVYLQMNNLRAEDTGIYYCIEEGGYYVPFAYWGQGTLVTVSA VL: DIVVSQSPSSLAVSAGEKVTMSCKSSQSLFKSRTRKNYLAWYQQRPGQSPKLLIYWASIRESGVPDRFTGSGSGTEFTLTISSVQAEDLAVYYCKQSYYLLTFGAGTKLELK    9.15
3) D41S2 mouse/human chimeric anti-human CD47 antibody (antibody, V domains shown, also called chimeric D41S2) VH: EVQLQQSVAELVRPGASVKLSCTPSGFNIKNTYIYWVRQRPEQGLEWIGRIDPANGNTKDAPKFQGKATMTADTSSNTAYLQLSSLTSEDTAIYYCARGYGSGFAYWGQGTLVTVSA VL: DIQMTQTTSSLSASLGDRVTISCRASQDISNHLNWYQQKPDGTVKLLIYYTSRLHSGVPSRFSGSGSGTDYSLTISNLEQEDIATYFCQQGSTLPFTFGSGTKLEIK    8.28
